Test: in vitro
Details: human, liver microsomes
Each entry below carries its reported log10 half-life at 5 min, 1 µM.
reported-endpoint: log10 half-life at 5 min, 1 µM (log10 of the value in min)

>>> readout_number("Cn1c(=O)n(C2CCOCC2)c2nc(N3CCc4cc(C#N)ccc43)ncc21")
1.32
>>> readout_number("COc1ccc2c(c1)CCN2c1ncc2c(n1)n(C1CCOCC1)c(=O)n2C")
0.92
>>> readout_number("Cc1cc(-c2cn(C)nc2C)ncc1Nc1ncc2c(n1)n(C1CCOCC1)c(=O)n2C")
3.89
>>> readout_number("COc1ccc(-c2cc(C)c(Nc3ncc4c(n3)n(C3CCOCC3)c(=O)n4C)cn2)cn1")
3.06
>>> readout_number("Cc1cc(-c2cnn(C)c2)ncc1Nc1ncc2c(n1)n([C@@]13C[C@@H]4C[C@@](C)(C[C@@](C)(C4)C1)C3)c(=O)n2C")
0.35

* * *

Experiment: in vivo
Details: Sprague-Dawley, rat, iv, 5 mg/kg
reported-endpoint: AUC(0-t) at 24 h (ng·h/mL)

>>> readout_number("Cc1cnc(-c2cnn(C)c2)cc1Nc1ncc2c(n1)n(C1CCOCC1)c(=O)n2C")
7300
>>> readout_number("Cc1cc(-c2nc[nH]n2)ccc1Nc1ncc2c(n1)n(C1CCOCC1)c(=O)n2C")
4060
>>> readout_number("COc1ccc(-c2cc(C)c(Nc3ncc4c(n3)n(C3CCOCC3)c(=O)n4C)cn2)cn1")
13200
>>> readout_number("Cc1cc2ncnn2cc1Nc1ncc2c(n1)n(C1CCOCC1)c(=O)n2C")
3150
>>> readout_number("Cc1cc(-c2ccc(C=O)o2)ncc1Nc1ncc2c(n1)n(C1CCOCC1)c(=O)n2C")
29.9
>>> readout_number("Cc1cc(-c2cccs2)ncc1Nc1ncc2c(n1)n(C1CCOCC1)c(=O)n2C")
278
>>> readout_number("COc1ccc(-c2cc(C)c(Nc3ncc4c(n3)n(C3CCOCC3)c(=O)n4C)cn2)cc1OC")
7400
>>> readout_number("Cc1cc(-c2cnn(C(F)F)c2)ncc1Nc1ncc2c(n1)n(C1CCOCC1)c(=O)n2C")
5290

* * *

Assay: in vivo
Settings: Sprague-Dawley, rat, plasma, iv, 5 mg/kg
Description: Clearance in Sprague-Dawley rat plasma at 5 mg/kg, iv measured upto 24 hrs by LC-MS/MS analysis
reported-endpoint: clearance at 24 h

>>> result("COc1ccc(-c2cc(C)c(Nc3ncc4c(n3)n(C3CCOCC3)c(=O)n4C)cn2)cn1")
"6.33 mL/min/kg"
>>> result("Cc1cc(-c2cccs2)ncc1Nc1ncc2c(n1)n(C1CCOCC1)c(=O)n2C")
"306 mL/min/kg"
>>> result("Cc1cnc(-c2cnn(C)c2)cc1Nc1ncc2c(n1)n(C1CCOCC1)c(=O)n2C")
"11.7 mL/min/kg"
>>> result("Cc1cc(-c2nc[nH]n2)ccc1Nc1ncc2c(n1)n(C1CCOCC1)c(=O)n2C")
"20.2 mL/min/kg"
>>> result("Cc1cc(-c2cnn(C(F)F)c2)ncc1Nc1ncc2c(n1)n(C1CCOCC1)c(=O)n2C")
"16.3 mL/min/kg"
>>> result("COc1ccc(-c2cc(C)c(Nc3ncc4c(n3)n(C3CCOCC3)c(=O)n4C)cn2)cc1OC")
"11 mL/min/kg"

* * *

Listed here: items and their measured half-life at 5 min, 1 µM.
Experiment: in vitro
Conditions: human, liver microsomes
reported-endpoint: half-life at 5 min, 1 µM (h)

>>> readout_number("Cc1ccc(-c2cnn(C)c2)cc1Nc1ncc2c(n1)n(C1CCOCC1)c(=O)n2C")
3.04
>>> readout_number("Cn1cc(-c2ccc3c(c2)CCN3c2ncc3c(n2)n(C2CCOCC2)c(=O)n3C)cn1")
2.51
>>> readout_number("Cc1cc(-c2ccoc2)ncc1Nc1ncc2c(n1)n(C1CCOCC1)c(=O)n2C")
0.213
>>> readout_number("Cc1nc(-c2cn[nH]c2)ccc1Nc1ncc2c(n1)n(C1CCOCC1)c(=O)n2C")
1.2
>>> readout_number("Cc1cc(-c2nc[nH]n2)ccc1Nc1ncc2c(n1)n(C1CCOCC1)c(=O)n2C")
10.5
>>> readout_number("Cn1c(=O)n(C2CCOCC2)c2nc(N3CCc4ccccc43)ncc21")
1.2
>>> readout_number("Cc1cc(-c2ccsc2)ncc1Nc1ncc2c(n1)n(C1CCOCC1)c(=O)n2C")
2.51
>>> readout_number("COc1ccc(-c2cc(C)c(Nc3ncc4c(n3)n(C3CCOCC3)c(=O)n4C)cn2)cc1OC")
2.31
>>> readout_number("Cc1cc(-c2cccs2)ncc1Nc1ncc2c(n1)n(C1CCOCC1)c(=O)n2C")
1.96
>>> readout_number("Cc1cc(-c2cnn(C(F)F)c2)ncc1Nc1ncc2c(n1)n(C1CCOCC1)c(=O)n2C")
2.78
